IC50 tested on Cytochrome P450 2D6 (Homo sapiens, UniProt P10635): recorded values
Sequence (P10635 whole entry): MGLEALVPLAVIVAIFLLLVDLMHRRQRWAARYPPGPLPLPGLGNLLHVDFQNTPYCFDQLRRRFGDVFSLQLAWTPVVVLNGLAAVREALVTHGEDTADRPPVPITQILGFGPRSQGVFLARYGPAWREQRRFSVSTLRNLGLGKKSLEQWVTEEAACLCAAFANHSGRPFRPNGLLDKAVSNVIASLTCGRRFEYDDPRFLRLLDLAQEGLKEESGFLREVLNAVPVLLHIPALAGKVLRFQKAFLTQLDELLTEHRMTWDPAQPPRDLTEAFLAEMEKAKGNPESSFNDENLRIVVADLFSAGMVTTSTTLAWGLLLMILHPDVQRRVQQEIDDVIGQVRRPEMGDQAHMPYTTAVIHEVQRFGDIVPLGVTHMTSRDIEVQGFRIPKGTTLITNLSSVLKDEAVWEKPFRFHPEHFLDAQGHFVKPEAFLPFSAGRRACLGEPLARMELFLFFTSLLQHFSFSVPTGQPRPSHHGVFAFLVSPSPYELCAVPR

Below, 3 compounds whose answers are already recorded.
NC(=O)[C@]12CC3CC(C1)[C@H](OC(=O)N1CC[C@H](Nc4ncccc4C(F)(F)F)C1)C(C3)C2	> 30 µM
N#Cc1ccc(N[C@@H]2CCN(C(=O)O[C@H]3C4CC5CC3C[C@](C(N)=O)(C5)C4)C2)nc1	25 µM
CC(C)(C)OC(=O)N[C@@H]1CCN(C(=O)O[C@H]2C3CC4CC2C[C@](C(N)=O)(C4)C3)C1	> 30 µM

Inquiry: Query for Cytochrome P450 2D6 (Homo sapiens, UniProt P10635): what IC50 does the record show for "NC(=O)[C@]12CC3CC(C1)[C@@H](OC(=O)N1CC[C@@H](Nc4ccc(C(F)(F)F)cn4)C1)C(C3)C2" ?
Reply text: 11.6 µM

---

# experimental_target: 3 beta-hydroxysteroid dehydrogenase/Delta 5-->4-isomerase type 2 (Homo sapiens)
# Sequence (P26439 whole entry): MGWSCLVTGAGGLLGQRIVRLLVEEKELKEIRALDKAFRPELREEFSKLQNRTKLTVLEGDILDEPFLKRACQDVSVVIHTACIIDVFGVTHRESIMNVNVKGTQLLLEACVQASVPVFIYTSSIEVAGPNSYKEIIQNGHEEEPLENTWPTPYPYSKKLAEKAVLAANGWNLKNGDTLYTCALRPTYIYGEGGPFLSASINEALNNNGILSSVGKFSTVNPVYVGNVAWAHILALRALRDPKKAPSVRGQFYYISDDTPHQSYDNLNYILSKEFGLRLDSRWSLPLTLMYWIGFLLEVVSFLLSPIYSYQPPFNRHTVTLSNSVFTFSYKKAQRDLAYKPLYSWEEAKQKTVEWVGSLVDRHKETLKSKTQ
# test_details: Inhibition of 3betaHSD2
pIC50: −log10 of the molar value.
Listed here: items and their measured pIC50.

N#Cc1cccnc1N[C@@H]1CCN(C(=O)O[C@H]2C3CC4CC2C[C@](C(N)=O)(C4)C3)C1	< 5.00

Inquiry: // pIC50 lookup, key: "N#Cc1ccc(N[C@@H]2CCN(C(=O)O[C@H]3C4CC5CC3C[C@](C(N)=O)(C5)C4)C2)nc1"
Reply text: < 5.00

---

# experimental_target: 11-beta-hydroxysteroid dehydrogenase 1 (Homo sapiens, UniProt P28845)
# Sequence (P28845 whole entry): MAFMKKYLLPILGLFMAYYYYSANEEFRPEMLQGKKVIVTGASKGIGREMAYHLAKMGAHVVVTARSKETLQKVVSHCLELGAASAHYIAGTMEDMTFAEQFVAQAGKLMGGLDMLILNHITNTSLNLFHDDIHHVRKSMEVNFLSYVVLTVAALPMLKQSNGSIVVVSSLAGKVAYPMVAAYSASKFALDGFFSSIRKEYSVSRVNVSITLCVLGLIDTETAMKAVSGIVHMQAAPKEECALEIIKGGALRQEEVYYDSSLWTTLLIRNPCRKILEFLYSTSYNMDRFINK
# test_details: Inhibition of recombinant 11betaHSD1 expressed in CHO cells assessed as [3H]-cortisone to [3H]-cortisol by microscintillation plate reader
# Assay type: cell-based
pIC50: −log10 of the molar value.
assay_metric: pIC50

Below, 5 molecules whose answers are already recorded.
NC(=O)[C@]12CC3CC(C1)[C@@H](OC(=O)N1CC[C@@H](Nc4nnc(C(F)(F)F)s4)C1)C(C3)C2	7.67
N#Cc1ccc(N[C@@H]2CCN(C(=O)O[C@H]3C4CC5CC3C[C@](C(N)=O)(C5)C4)C2)nc1	8.82
N#Cc1cccnc1N[C@@H]1CCN(C(=O)O[C@H]2C3CC4CC2C[C@](C(N)=O)(C4)C3)C1	9.06
CC(C)(C)OC(=O)N[C@H]1CCN(C(=O)O[C@H]2C3CC4CC2C[C@](C(N)=O)(C4)C3)C1	8.36
N#Cc1cccnc1N[C@H]1CCN(C(=O)O[C@H]2C3CC4CC2C[C@](C(N)=O)(C4)C3)C1	8.59

I = Cc1cc(N[C@@H]2CCN(C(=O)O[C@H]3C4CC5CC3C[C@](C(N)=O)(C5)C4)C2)nc(C)n1
II = CC(C)(C)OC(=O)N[C@@H]1CCN(C(=O)O[C@H]2C3CC4CC2C[C@](C(C)(C)O)(C4)C3)C1
Inquiry: Looking only at measured pIC50, which entry is lower, I or II ? Kindly state the label of the option you pick.
Reply text: II

1 = N#Cc1ccc(N[C@H]2CCN(C(=O)O[C@H]3C4CC5CC3C[C@](C(N)=O)(C5)C4)C2)nc1
2 = CC(C)(C)CC(=O)N[C@@H]1CCN(C(=O)OC2C3CC4CC(C3)CC2C4)C1 (stereo not given in full)
Inquiry: Looking only at measured pIC50, which entry is lower, 1 or 2 ? Kindly state the label of the option you pick.
Reply text: 2
(2: 7.17, 1: 8.77)

---

# test_details: Mean residence time in rat at 1 umol/kg, iv and 5 umol/kg, po
# assay_conditions: in vivo
assay_metric: MRT (min)

A = N#Cc1cccnc1N[C@@H]1CCN(C(=O)O[C@H]2C3CC4CC2C[C@](C(N)=O)(C4)C3)C1
B = N#Cc1ccc(N[C@@H]2CCN(C(=O)O[C@H]3C4CC5CC3C[C@](C(N)=O)(C5)C4)C2)nc1
Inquiry: Lab notebook, comparison: A versus B , higher MRT goes to which? Kindly state the label of the option you pick.
Reply text: B
(B: 30 min, A: 18 min)

---

pIC50 tested on Cytochrome P450 3A4 (Homo sapiens, UniProt P08684): recorded values
Sequence (P08684 whole entry): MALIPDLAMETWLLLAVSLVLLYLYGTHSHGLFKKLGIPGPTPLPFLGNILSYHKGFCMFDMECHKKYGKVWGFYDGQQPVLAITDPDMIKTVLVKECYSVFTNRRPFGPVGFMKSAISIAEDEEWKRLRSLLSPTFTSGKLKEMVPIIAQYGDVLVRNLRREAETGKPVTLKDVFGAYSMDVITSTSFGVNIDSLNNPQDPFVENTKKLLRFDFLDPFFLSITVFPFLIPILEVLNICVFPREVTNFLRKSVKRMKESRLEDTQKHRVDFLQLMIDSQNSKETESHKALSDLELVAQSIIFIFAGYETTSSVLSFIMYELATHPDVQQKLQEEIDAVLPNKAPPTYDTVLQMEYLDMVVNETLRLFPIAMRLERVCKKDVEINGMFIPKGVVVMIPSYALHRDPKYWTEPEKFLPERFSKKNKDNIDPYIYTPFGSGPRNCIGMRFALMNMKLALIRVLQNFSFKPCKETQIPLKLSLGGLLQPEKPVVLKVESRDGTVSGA
pIC50: −log10 of the molar value.
assay_metric: pIC50

NC(=O)[C@]12CC3CC(C1)[C@@H](OC(=O)N1CC[C@H](Nc4ccc(C(F)(F)F)cn4)C1)C(C3)C2	4.99

I = NC(=O)[C@]12CC3CC(C1)[C@@H](OC(=O)N1CC[C@@H](Nc4ccc(C(F)(F)F)cn4)C1)C(C3)C2
II = NC(=O)[C@]12CC3CC(C1)[C@@H](OC(=O)N1CC[C@@H](Nc4ncccc4C(F)(F)F)C1)C(C3)C2
Inquiry: Looking only at measured pIC50, which entry is lower, I or II ? Kindly state the label of the option you pick.
Reply text: I
(I: 5.14, II: 5.48)

---

# experimental_target: Cytochrome P450 2C9 (Homo sapiens, UniProt P11712)
# Sequence (P11712 whole entry): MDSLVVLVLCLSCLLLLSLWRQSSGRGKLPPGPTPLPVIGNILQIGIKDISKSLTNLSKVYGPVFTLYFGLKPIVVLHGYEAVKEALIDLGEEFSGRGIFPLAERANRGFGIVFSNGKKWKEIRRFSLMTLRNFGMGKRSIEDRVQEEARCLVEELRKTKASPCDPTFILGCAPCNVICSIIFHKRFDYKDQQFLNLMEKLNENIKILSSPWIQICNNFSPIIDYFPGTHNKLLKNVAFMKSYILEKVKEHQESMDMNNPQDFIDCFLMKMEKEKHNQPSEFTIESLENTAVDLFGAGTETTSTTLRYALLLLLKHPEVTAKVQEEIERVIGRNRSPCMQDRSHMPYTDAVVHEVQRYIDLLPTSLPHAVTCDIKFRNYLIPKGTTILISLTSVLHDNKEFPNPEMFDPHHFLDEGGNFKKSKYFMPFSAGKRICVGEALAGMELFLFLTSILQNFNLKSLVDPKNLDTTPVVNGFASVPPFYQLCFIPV
# test_details: Inhibition of CYP2C9
# Type: ADME
pIC50: −log10 of the molar value.
assay_metric: pIC50

A = N#Cc1ccc(N[C@H]2CCN(C(=O)O[C@H]3C4CC5CC3C[C@](C(N)=O)(C5)C4)C2)nc1
B = NC(=O)[C@]12CC3CC(C1)[C@@H](OC(=O)N1CC[C@@H](Nc4ncccc4C(F)(F)F)C1)C(C3)C2
Inquiry: Looking only at measured pIC50, which entry is lower, A or B ? Kindly state the label of the option you pick.
Reply text: A
(A: 4.70, B: 5.03)

---

# test_details: in vitro
# assay_conditions: rat, liver microsomes
assay_metric: half-life (min)

Below, 3 molecules whose answers are already recorded.
NC(=O)[C@]12CC3CC(C1)[C@H](OC(=O)N1CC[C@H](Nc4ncccc4C(F)(F)F)C1)C(C3)C2	11
NC(=O)[C@]12CC3CC(C1)[C@@H](OC(=O)N1CC[C@@H](Nc4ncccc4C(F)(F)F)C1)C(C3)C2	30
CC(C)(C)OC(=O)N[C@@H]1CCN(C(=O)OC2C3CC4CC(C3)CC2C4)C1 (stereo partly drawn)	2

1 = N#Cc1ccc(N[C@H]2CCN(C(=O)O[C@H]3C4CC5CC3C[C@](C(N)=O)(C5)C4)C2)nc1
2 = NC(=O)[C@]12CC3CC(C1)[C@@H](OC(=O)N1CC[C@@H](Nc4cccc(C(F)(F)F)n4)C1)C(C3)C2
Inquiry: Lab notebook, comparison: 1 versus 2 , higher half-life goes to which? Kindly state the label of the option you pick.
Reply text: 1
(1: 25 min, 2: 7 min)

I = O=C(OC1C2CC3CC(C2)CC1C3)N1CCCCC1 (stereo not drawn)
II = N#Cc1ccc(N[C@@H]2CCN(C(=O)O[C@H]3C4CC5CC3C[C@](C(N)=O)(C5)C4)C2)nc1
III = N#Cc1cccnc1N[C@H]1CCN(C(=O)O[C@H]2C3CC4CC2C[C@](C(N)=O)(C4)C3)C1
Inquiry: # rank by half-life, ascending (min first) Reply: labels, ordered per the request.
Reply text: I, III, II

---

# experimental_target: Glucocorticoid receptor (Homo sapiens, UniProt P04150)
# Sequence (P04150 whole entry): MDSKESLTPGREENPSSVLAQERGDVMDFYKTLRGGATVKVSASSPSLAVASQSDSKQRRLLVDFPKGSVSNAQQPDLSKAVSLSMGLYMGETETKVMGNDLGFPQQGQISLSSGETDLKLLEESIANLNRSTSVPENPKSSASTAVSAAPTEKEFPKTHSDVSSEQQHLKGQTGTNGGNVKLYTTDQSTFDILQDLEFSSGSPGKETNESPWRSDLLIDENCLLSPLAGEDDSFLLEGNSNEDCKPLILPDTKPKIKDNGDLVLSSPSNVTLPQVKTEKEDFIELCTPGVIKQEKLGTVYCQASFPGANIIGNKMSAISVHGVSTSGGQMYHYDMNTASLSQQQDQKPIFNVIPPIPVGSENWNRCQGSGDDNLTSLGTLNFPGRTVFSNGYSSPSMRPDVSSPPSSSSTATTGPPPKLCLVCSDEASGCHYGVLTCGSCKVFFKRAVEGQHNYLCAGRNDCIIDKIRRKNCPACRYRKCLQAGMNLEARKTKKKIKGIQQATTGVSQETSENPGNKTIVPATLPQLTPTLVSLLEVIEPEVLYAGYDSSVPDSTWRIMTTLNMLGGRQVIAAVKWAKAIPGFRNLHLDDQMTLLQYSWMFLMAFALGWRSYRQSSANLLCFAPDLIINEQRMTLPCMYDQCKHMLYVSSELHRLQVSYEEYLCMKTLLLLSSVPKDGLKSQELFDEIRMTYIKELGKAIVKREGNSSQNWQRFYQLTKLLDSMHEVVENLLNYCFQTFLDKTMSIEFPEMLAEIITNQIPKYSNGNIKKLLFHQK
# test_details: Activity against GR
pEC50: −log10 of the molar value.
assay_metric: pEC50

Inquiry: // pEC50 lookup, key: "CC(C)(C)OC(=O)N[C@@H]1CCN(C(=O)O[C@H]2C3CC4CC2C[C@](C(N)=O)(C4)C3)C1"
Reply text: < 5.00
